system: Tov112D; assay: Primary qHTS to identify gynecologic anti-cancer compounds using libraries of approved drugs and bioactive compounds (AID 1345084); conditions: Gynecologic cancer cell panel viability, ATPlite luminescence, 48 h; series mostly up to 57.5 µM; further: nearly all actives have a fitted effect of over 55% in size
Records with an inconclusive call do not appear. Activity calls are given as the source filed them. The call rests on the fitted dose curve; in most records, active means well fitted cell-killing curve with a large enough effect; inconclusive means small, poorly fitted or top-dose-only effect, or effect the other way; inactive means flat fitted curve, though single readings scatter.
measurement-type: activity change, negative = cytotoxicity

Known activity change, negative = cytotoxicity results, listed for orientation:
{"molecule": "CN(C)C/C=C(/c1ccc(Br)cc1)c1cccnc1", "activity change, negative = cytotoxicity": "inactive"}
{"molecule": "O=C(CCNNC(=O)c1ccncc1)NCc1ccccc1", "activity change, negative = cytotoxicity": "inactive"}
{"molecule": "COCC(=O)O[C@]1(CCN(C)CCCc2nc3ccccc3[nH]2)CCc2cc(F)ccc2[C@@H]1C(C)C", "activity change, negative = cytotoxicity": "inactive"}
{"molecule": "COc1ccc([C@@H]2Sc3ccccc3N(CCN(C)C)C(=O)[C@@H]2OC(C)=O)cc1", "activity change, negative = cytotoxicity": "inactive"}
{"molecule": "CN1C[C@H](C(=O)N[C@]2(C)O[C@@]3(O)[C@@H]4CCCN4C(=O)[C@H](Cc4ccccc4)N3C2=O)C[C@@H]2c3cccc4[nH]cc(c34)C[C@H]21", "activity change, negative = cytotoxicity": "inactive"}
{"molecule": "CC(C)[N+](C)(CCOC(=O)C1c2ccccc2Oc2ccccc21)C(C)C", "activity change, negative = cytotoxicity": "inactive"}

// for each molecule below, give its activity change, negative = cytotoxicity
1. NC(=O)c1cn(Cc2c(F)cccc2F)nn1
2. CCN(CC)CC(=O)Nc1c(C)cccc1C
3. CC(C)(C)NCC(O)c1cc(O)cc(O)c1 (stereo not given)

1. inactive
2. inactive
3. inactive

Fill in the recorded activity change, negative = cytotoxicity for this molecule, with Tov112D as test system: CC(=O)[C@@]1(O)CC[C@H]2[C@@H]3CCC4=CC(=O)CC[C@]4(C)[C@H]3CC[C@@]21C
inactive

---

experiment: qHTS assay to identify small molecule inhibitors of chordoma cells - UCH-2 (AID 1259356); settings: UCH-2 chordoma viability, CellTiter-Glo ATP luminescence, 48 h; series mostly up to 46.1 µM
Records with an inconclusive call do not appear. The source made the active and inactive calls. Calls follow the shape of the dose curve; as a rule, active = well fitted cell-killing curve with a large enough effect; inconclusive = small, poorly fitted or top-dose-only effect; inactive = flat fitted curve, though single readings scatter.
Pick one and only one: t for active, f for inactive

Would you please look over these solved cases?
{"compound": "COc1cc2c(cc1OC)-c1cc(=Nc3c(C)cc(C)cc3C)n(C)c(=O)n1CC2", "class": "f"}
{"compound": "CN/C(=C\\[N+](=O)[O-])NCCSCc1ccc(CN(C)C)o1", "class": "f"}
{"compound": "Nc1nc(N)c2nc(-c3ccccc3)c(N)nc2n1", "class": "f"}

Hello, I am checking results. What call was entered for NC(=O)c1cn(Cc2c(F)cccc2F)nn1 ?
f

Hello, I am checking results. What call was entered for CC(=O)[C@@]1(O)CC[C@H]2[C@@H]3CCC4=CC(=O)CC[C@]4(C)[C@H]3CC[C@@]21C ?
f

Hello, I am checking results. What call was entered for Cc1scc2c1N(C(=O)CN1CCN(C)CC1)c1ccccc1NC2=O ?
f

Hello, I am checking results. What call was entered for CC(=O)OCC1=C(C(=O)O)N2C(=O)[C@@H](NC(=O)Cc3cccs3)[C@H]2SC1 ?
f

Hello, I am checking results. What call was entered for c1ccc2c(c1)CCCC2C1=NCCN1 (stereo not drawn) ?
f

Hello, I am checking results. What call was entered for NC(=Nc1ccccc1)Nc1ccccc1 ?
f

Hello, I am checking results. What call was entered for CCN1CCc2nc(N)oc2CC1 ?
f

---

test: qHTS assay for measurement of the activity of small molecule inhibitors on Zika virus induced Caspase-3 activity in human astrocytoma cells (AID 1224859); details: SNB-19 ZIKV-induced caspase-3/7, luminescence, 6 h; series mostly up to 45.7 µM
Activity calls are given as the source filed them. Calls come from the whole dose curve; as a rule, active = well fitted inhibition curve with a large enough effect; inconclusive = small, poorly fitted or top-dose-only effect; inactive = no such curve, though single readings can be large or run the other way.
measurement-type: outcome

{"compound": "NC(=O)c1ncn([C@@H]2O[C@H](CO)[C@@H](O)[C@H]2O)c1O", "outcome": "inactive"}
{"compound": "OC(CCN1CCCCC1)(c1ccccc1)C1CCCCC1 (stereo not drawn)", "outcome": "inactive"}
{"compound": "CC(=O)Nc1nnc(S(N)(=O)=O)s1", "outcome": "inactive"}
{"compound": "NC(=O)c1cn(Cc2c(F)cccc2F)nn1", "outcome": "inactive"}
{"compound": "COCCOC(=O)C1=C(C)NC(C)=C(C(=O)OC(C)C)C1c1cccc([N+](=O)[O-])c1 (stereo not drawn)", "outcome": "inactive"}

// for each compound below, give its outcome
1. CC(=O)OC(C)C[N+](C)(C)C (stereo not drawn)
2. c1ccc2c(c1)CCCC2C1=NCCN1 (stereo not drawn)
3. c1cc(CN2CCCCC2)cc(OCCCNc2nc3ccccc3s2)c1
4. NC(Cc1ccc(Cl)cc1)C(=O)O (stereo not drawn)
5. CCOC(=O)C1=C(C)NC(C)=C(C(=O)OC)C1c1cccc(Cl)c1Cl (stereo not drawn)
6. CC[N+](C)(C)c1cccc(O)c1
7. CN(C)C(=O)Oc1ccc[n+](C)c1

inactive
inactive
inactive
inactive
inactive
inactive
inactive

Any idea what outcome was measured for Cc1cccc(C)c1NC(=O)C(C)N (stereo not drawn) ?
inactive

---

system: OV90; experiment: Primary qHTS to identify gynecologic anti-cancer compounds using libraries of approved drugs and bioactive compounds (AID 1345084); conditions: Gynecologic cancer cell panel viability, ATPlite luminescence, 48 h; series mostly up to 57.5 µM; further: nearly all actives have a fitted effect of over 55% in size; further: potency means the concentration at half of the fitted maximal effect
Records with an inconclusive call do not appear. The source made the active and inactive calls. The call rests on the fitted dose curve; in most records, active means well fitted cell-killing curve with a large enough effect; inconclusive means small, poorly fitted or top-dose-only effect, or effect the other way; inactive means flat fitted curve, though single readings scatter.
measurement-type: Potency

{"compound": "CCCC(C(=O)OCCN(CC)CC)(c1ccccc1)c1ccccc1", "Potency": "12.6 µM (active)"}
{"compound": "CCOC(=O)C1=C(C)NC(C)=C(C(=O)OC)C1c1cccc(Cl)c1Cl (stereo unspecified)", "Potency": "inactive"}
{"compound": "COc1ccc(CCN(C)CCCC(C#N)(c2cc(OC)c(OC)c(OC)c2)C(C)C)cc1OC (stereo unspecified)", "Potency": "inactive"}
{"compound": "Brc1c(NC2=NCCN2)ccc2nccnc12", "Potency": "inactive"}
{"compound": "CNC1(C)C2CCC(C2)C1(C)C (stereo unspecified)", "Potency": "inactive"}

Switching to the query record.
Any idea what Potency was measured for COc1ccc2c(c1OC)C(=O)O[C@@H]2[C@H]1c2c(cc3c(c2OC)OCO3)CCN1C ?
inactive

---

test system: CP191; experiment: qHTS profiling for inhibitors of Plasmodium falciparum proliferation (AID 504749); further: nearly all actives have a fitted effect of over 60% in size; settings: P. falciparum in erythrocytes, SYBR Green DNA, 72 h; series mostly up to 28.7 µM
Records with an inconclusive call do not appear. Calls of active or inactive are those of the source. The call rests on the fitted dose curve; in most records, active means well fitted inhibition curve with a large enough effect; inconclusive means small, poorly fitted or top-dose-only effect; inactive means flat fitted curve, though single readings scatter.
Pick one and only one: t (active), f (inactive)

Would you please look over these solved cases?
{"compound": "Cc1nc2c([nH]1)c(=O)n(C)c(=O)n2Cc1ccco1", "class": "f"}
{"compound": "C#CCN(C)CCCOc1ccc(Cl)cc1Cl", "class": "f"}
{"compound": "O=C1CC2(CCCC2)CC(=O)N1CCCCN1CCN(c2ncccn2)CC1", "class": "f"}
{"compound": "CC(=O)OCC1=C(C(=O)O)N2C(=O)[C@@H](NC(=O)Cc3cccs3)[C@H]2SC1", "class": "f"}
{"compound": "CNC1(C)C2CCC(C2)C1(C)C (stereo unspecified)", "class": "f"}

Hello, I am checking results. What call was entered for CC[N+](C)(C)c1cccc(O)c1 ?
f

Hello, I am checking results. What call was entered for CCO/C([O-])=N/c1c[n+](N2CCOCC2)no1 ?
f

Hello, I am checking results. What call was entered for CC(C)NNC(=O)c1ccncc1 ?
t

Hello, I am checking results. What call was entered for CCOC(=O)c1cnc2c(cnn2CC)c1NN=C(C)C ?
f

Hello, I am checking results. What call was entered for Cc1nnc(SCC2=C(C(=O)O)N3C(=O)[C@@H](NC(=O)Cn4cnnn4)[C@H]3SC2)s1 ?
f

Hello, I am checking results. What call was entered for CC(C(=O)O)c1ccc(CC2CCCC2=O)cc1 (stereo unspecified) ?
f

Hello, I am checking results. What call was entered for CCN1CCC[C@H]1CNC(=O)c1c(O)c(Cl)cc(Cl)c1OC ?
f

---

assay: qHTS profiling for inhibitors of Plasmodium falciparum proliferation (AID 504749); further: nearly all actives have a fitted effect of over 60% in size; further: potency means the concentration at half of the fitted maximal effect; conditions: P. falciparum in erythrocytes, SYBR Green DNA, 72 h; parasite line B
Records with an inconclusive call do not appear. Active and inactive are the calls of the source. The call rests on the fitted dose curve; in most records, active means well fitted inhibition curve with a large enough effect; inconclusive means small, poorly fitted or top-dose-only effect; inactive means flat fitted curve, though single readings scatter.
measurement-type: Potency

// for each molecule below, give its Potency
1. CCNC(=O)N1CCN(CCCC(c2ccc(F)cc2)c2ccc(F)cc2)CC1
2. CCN(CC)CCCN(c1ccccc1)C1Cc2ccccc2C1
3. COc1cc2c(cc1OC)-c1cc(=Nc3c(C)cc(C)cc3C)n(C)c(=O)n1CC2

1: 1.26 µM (active); 2: 7.08 µM (active); 3: 2.51 µM (active)

// for each molecule below, give its Potency
1. CC(=O)[C@]1(O)Cc2c(O)c3c(c(O)c2[C@@H](O[C@H]2C[C@H](N)[C@H](O)[C@H](C)O2)C1)C(=O)c1ccccc1C3=O
2. C[N+](C)(C)CCCCCCCCCC[N+](C)(C)C
3. OCCN1CCN(CC/C=C2/c3ccccc3Sc3ccc(C(F)(F)F)cc32)CC1
4. O=C1NCN(c2ccccc2)C12CCN(CCCC(c1ccc(F)cc1)c1ccc(F)cc1)CC2
5. OCCN1CCN(CCCN2c3ccccc3C=Cc3ccccc32)CC1
6. NC(N)=NC(=O)Cc1c(Cl)cccc1Cl

1: 11.2 µM (active); 2: 1.58 µM (active); 3: 11.2 µM (active); 4: 7.94 µM (active); 5: 11.2 µM (active); 6: 5.01 µM (active)

Origin of values: PubChem BioAssay (NCATS)
